Test system: MS2 coat protein
assay.summary: apparent KD of MS2 coat protein; designed switch direction (-1 OFF switch, 1 ON switch): -1; higher = weaker reporter binding
recorded.conditions: input ligand: none
assay.readout: apparent KD of MS2 coat protein (nM)

[[record]]
monomer_sequence = "CAGAACUGAGGAUAUACAUGAGGAUCACCCAUGUGUUCCAGCUAGGAGACUAGCAUAUGUAGAAGGCAGUUCUG [Mat - Exclusion 3 - JL Mod - D11] (Eterna round: R97, puzzle: Exclusion 3)"
target = "MS2 coat protein"
measured_number = 359

[[record]]
monomer_sequence = "CUUUUGUGAGGAUAUCAGUAGUAAAAAAAUAAAAUUACUACUGAGAAGGCACAUGAGGAUCACCCAUGUUCCUC [EX4 344: Super Stable 44] (Eterna round: R96, puzzle: Exclusion 4)"
target = "MS2 coat protein"
measured_number = 42.4

[[record]]
monomer_sequence = "GCAGUAACAUGAGGAUCACCCAUGUGGAACUCGUGAAUAAGCGAGGAUAUCUCAAGAUAUCAAAGAGAGAAGGCGUACACUGCA [Qulege] (Eterna round: R96, puzzle: Exclusion NG 3)"
target = "MS2 coat protein"
measured_number = 142

[[record]]
monomer_sequence = "UUAUUAAGUGUGAGGAUAUGCUGGUCCUUGGAUCAGCAGAAGGCACAUGAGGAUCACCCAUGUACAAUAUAUUA [Mat - Exclusion 4 - JL Mod - D30] (Eterna round: R96, puzzle: Brourd's mod of Exclusion 4)"
target = "MS2 coat protein"
measured_number = 42.1

[[record]]
monomer_sequence = "CAUGUCCAACGAGGAUAUGGGACAGGAAGUGUACCAGAAGGCGUACGGACAUGAGGAUCACCCAUGUCGCGCGGUGCGAUGUGG [MOD Nando EXNG 1.1] (Eterna round: R96, puzzle: Exclusion NG 1)"
target = "MS2 coat protein"
measured_number = 91.7

[[record]]
monomer_sequence = "UAUAAACAUGAGGAUCACCCAUGUGAGGAUAUCUAAACCAGAGCGGAUCUCUGGACCAAGAGAAGGUGCAUGGU [ElNandoxlusion 10 - Jieux - Exclusion 1] (Eterna round: R97, puzzle: Exclusion 1)"
target = "MS2 coat protein"
measured_number = 31.7

[[record]]
monomer_sequence = "AUCGUACAGCAAAGCUGUACGAGUACAUGAGGAUCACCCAUGUAGGAUAUGGUACGCAAAGCGUGCUAGAAGGAUAUGAGAUUU [Mat - Exclusion NG 3 - Mod of JL - D101] (Eterna round: R96, puzzle: Exclusion NG 3)"
target = "MS2 coat protein"
measured_number = 48.7

[[record]]
monomer_sequence = "CACACGUAAGGAUAUACAACGGAAACGGGCGCGCGGGCCUCACAUGAGGAUCACCCAUGUAGAAGGUGCACGGG [Eternabot (Original) Solution 18] (Eterna round: R97, puzzle: Exclusion 2)"
target = "MS2 coat protein"
measured_number = 50.3

[[record]]
monomer_sequence = "AACUCCUCAGGAUAUCUGAAAAUGGACAUGAGGAUCACCCAUGUGAAAGUCACAUCCGGAGGAGAAGGGAGGAGAA [Diororlera] (Eterna round: R97, puzzle: Exclusion 5)"
target = "MS2 coat protein"
measured_number = 16

